# measurement-target: human CYP11B1 (Homo sapiens (Human))
# Sequence (P15538 25-503): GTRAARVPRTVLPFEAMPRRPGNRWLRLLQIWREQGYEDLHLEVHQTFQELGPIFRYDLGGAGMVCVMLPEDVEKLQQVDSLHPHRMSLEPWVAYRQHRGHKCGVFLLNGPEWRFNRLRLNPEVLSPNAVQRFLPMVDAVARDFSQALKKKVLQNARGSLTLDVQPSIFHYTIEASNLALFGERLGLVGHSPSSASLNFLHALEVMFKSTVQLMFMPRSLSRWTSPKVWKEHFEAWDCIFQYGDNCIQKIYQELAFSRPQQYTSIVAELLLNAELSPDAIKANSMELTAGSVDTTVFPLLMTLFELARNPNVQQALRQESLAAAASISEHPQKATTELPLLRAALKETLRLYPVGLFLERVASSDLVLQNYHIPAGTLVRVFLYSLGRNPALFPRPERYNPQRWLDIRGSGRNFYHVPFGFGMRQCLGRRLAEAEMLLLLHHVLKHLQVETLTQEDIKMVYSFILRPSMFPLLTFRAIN
# protocol-summary: G-402 cellular enzyme assay, human CYP11B1 (cortisol release, HTRF)
# condition-set: G-402 cells expressing human CYP11B1; 1 μM Deoxycortisol
recorded-metric: EC50 (µM)

[
  {
    "compound": "CCC(=O)NC1CCCc2c(-c3ccc4c(c3)CCC(=O)N4C)cncc21 (single isomer, unassigned; (-)) [Example 2]",
    "recorded-value": 12.1
  },
  {
    "compound": "CCC(=O)NC1CCc2c(-c3cc(Cl)c4c(c3)CCC(=O)N4C)cncc21 (racemic) [Example 58]",
    "recorded-value": 7.6
  },
  {
    "compound": "CCC(=O)NC1CCc2c(-c3cc4c(cc3F)N(C)C(=O)CC4)cncc21 (single isomer, unassigned; (+)) [Example 24]",
    "recorded-value": 0.466
  },
  {
    "compound": "CC(O)C(=O)NC1CCCc2c(-c3ccc4c(c3)CCC(=O)N4C)cncc21 (stereo not shown) [Example 15]",
    "recorded-value": 0.574
  }
]
